target: Scavenger receptor class B member 1 (Mus musculus) (UniProt Q61009); assay: mSR-BI lipid transfer inhibition in CHO cells – ldlA[mSR-BI] CHO cells, fluorescence, dry powder, set 6, dose response (AID 588828); conditions: DiI-HDL uptake fluorescence, 3 h
Sequence (Q61009 whole entry, looked up): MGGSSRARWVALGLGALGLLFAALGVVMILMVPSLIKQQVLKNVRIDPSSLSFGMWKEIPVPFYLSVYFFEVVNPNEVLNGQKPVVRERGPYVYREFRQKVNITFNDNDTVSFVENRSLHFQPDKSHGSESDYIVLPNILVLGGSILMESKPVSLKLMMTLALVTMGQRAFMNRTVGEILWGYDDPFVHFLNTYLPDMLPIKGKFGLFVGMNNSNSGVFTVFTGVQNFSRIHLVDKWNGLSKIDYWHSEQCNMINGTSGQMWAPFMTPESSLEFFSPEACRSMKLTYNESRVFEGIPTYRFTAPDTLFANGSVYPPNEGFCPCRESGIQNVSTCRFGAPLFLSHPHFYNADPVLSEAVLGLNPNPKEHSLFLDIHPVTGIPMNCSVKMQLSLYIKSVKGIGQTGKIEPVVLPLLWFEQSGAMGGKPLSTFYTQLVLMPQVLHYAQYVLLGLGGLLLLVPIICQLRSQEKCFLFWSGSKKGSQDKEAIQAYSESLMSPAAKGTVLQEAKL
Activity calls are given as the source filed them.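 Rule for the calls: active = compounds cutting labeled HDL uptake fluorescence whose fitted AC50 is within ten times their top tested dose; inconclusive = flat fit with 30 to 70% inhibition, or poor fit; inactive = the rest.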
One label from this list, please: true = active, false = inactive

compound	assignedClass
CCCCCCC1CCC/C1=N\NC(N)=S (centres undefined)	true
C[C@@H]1CN([C@H](C)CO)C(=O)c2cc(NC(=O)Cc3cn(C)c4ccccc34)ccc2O[C@H]1CN(C)S(=O)(=O)c1ccc(Cl)cc1	true
CCC(=O)N1CCc2cc(-c3csc(NC(=O)c4ccc(F)c(OC)c4)n3)ccc21	true

Query string: Field: outcome | Entry: CCC(=O)N1CCc2cc(-c3csc(NC(=O)c4cccc(OC)c4)n3)ccc21
Result string: true

Query string: Same read-out for CCNC(=O)N1CCc2cc(-c3csc(NC(=O)c4cc(OC)cc(OC)c4)n3)ccc21 ?
Result string: true

Query string: Same read-out for CC(=O)N1CCc2cc(-c3nc(NC(=O)c4cccc(OC(F)(F)F)c4)sc3C)ccc21 ?
Result string: true

Query string: Same read-out for COc1cc(OC)cc(C(=O)Nc2nc(-c3ccc4c(c3)CCN4C(=O)OC(C)(C)C)cs2)c1 ?
Result string: true

Query string: Same read-out for COc1ccc(-c2cc(CC(=O)N(C3CCCCC3)C(C)C(=O)NC3CCCC3)no2)cc1OC (centres undefined) ?
Result string: true

Query string: Same read-out for CCC(=O)N1CC(C)(C)c2cc(-c3csc(NC(=O)c4cc(OC)cc(OC)c4)n3)ccc21 ?
Result string: true

Query string: Same read-out for COc1cc(OC)cc(C(=O)Nc2nc(-c3ccc4c(c3)CCN4C(=O)CN(C)C)cs2)c1 ?
Result string: true

Query string: Same read-out for COCC(=O)N1CCc2cc(-c3csc(NC(=O)c4cc(OC)cc(OC)c4)n3)ccc21 ?
Result string: true

Query string: Same read-out for C[C@H](C(=O)NC1CCCC1)N(C(=O)Cn1nnc(-c2ccc3c(c2)OCO3)n1)C1CCCCC1 ?
Result string: true

Query string: Same read-out for Cc1ccc2oc(-c3cccc(NC(=O)c4cc(-n5cnnc5)ccc4Cl)c3)nc2c1 ?
Result string: true

Query string: Same read-out for C[C@@H]1CN([C@@H](C)CO)C(=O)Cc2cc(NC(=O)Nc3ccc(C(F)(F)F)cc3)ccc2O[C@@H]1CN(C)S(=O)(=O)c1ccc(Cl)cc1 ?
Result string: false
